Reference source: patent US9682925B2

biological target: human LSD1(171-852) (Homo sapiens); construct: to give hLSD1(171-852) purified product; made in house; host or cells: Escherichia coli C43(DE3) pLysS; experiment: Measurement of LSD1 inhibitory activity (time-resolved fluorescence, biotin-histone H3 mono methylated K4 peptide); type: biochemical; conditions: read-out: LSD1 IC50 value
Structures can show the parent of a compound that is named as a salt.
# key: entry, value: IC50
Observed Property: IC50

compound="CN1CCC(N[C@@H]2C[C@H]2c2ccc(N(C)C(=O)c3cccc(C(F)(F)F)c3)cc2)CC1 (relative stereo) [Example 150, dihydrochloride]" assay_value="< 0.1 µM"
compound="O=C(Nc1ccc([C@@H]2C[C@H]2NCc2cc3cccnc3s2)cc1)c1cccc(C(F)(F)F)c1 (relative stereo) [Example 161, hydrochloride]" assay_value="< 0.1 µM"
compound="O=C(Nc1ccc([C@@H]2C[C@H]2NCc2ccc3nccn3c2)cc1)c1cccc(C(F)(F)F)c1 (relative stereo) [Example 107, dihydrochloride]" assay_value="< 0.1 µM"
